Target: human soluble guanylate cyclase alpha 1 and beta 1 subunits (sGC) (Homo sapiens, UniProt Q02108+Q02153)
Sequence (Q02108 whole entry): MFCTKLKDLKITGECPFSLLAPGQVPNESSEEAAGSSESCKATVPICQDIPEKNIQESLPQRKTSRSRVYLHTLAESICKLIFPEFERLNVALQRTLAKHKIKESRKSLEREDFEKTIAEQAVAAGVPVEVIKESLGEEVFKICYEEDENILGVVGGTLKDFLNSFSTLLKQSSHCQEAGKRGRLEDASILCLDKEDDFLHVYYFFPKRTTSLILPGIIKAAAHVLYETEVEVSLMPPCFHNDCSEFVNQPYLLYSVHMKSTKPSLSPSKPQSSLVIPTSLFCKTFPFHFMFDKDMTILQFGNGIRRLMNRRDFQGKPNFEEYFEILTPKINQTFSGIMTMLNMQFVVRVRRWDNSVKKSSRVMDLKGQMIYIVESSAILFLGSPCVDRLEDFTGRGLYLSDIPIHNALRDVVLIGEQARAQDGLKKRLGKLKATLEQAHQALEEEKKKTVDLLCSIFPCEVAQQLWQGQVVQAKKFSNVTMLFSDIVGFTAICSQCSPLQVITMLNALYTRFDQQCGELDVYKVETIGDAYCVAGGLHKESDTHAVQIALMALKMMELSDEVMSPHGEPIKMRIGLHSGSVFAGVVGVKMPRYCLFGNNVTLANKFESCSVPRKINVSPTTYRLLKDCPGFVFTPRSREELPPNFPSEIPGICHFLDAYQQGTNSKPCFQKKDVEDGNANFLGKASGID
Sequence (Q02153 whole entry): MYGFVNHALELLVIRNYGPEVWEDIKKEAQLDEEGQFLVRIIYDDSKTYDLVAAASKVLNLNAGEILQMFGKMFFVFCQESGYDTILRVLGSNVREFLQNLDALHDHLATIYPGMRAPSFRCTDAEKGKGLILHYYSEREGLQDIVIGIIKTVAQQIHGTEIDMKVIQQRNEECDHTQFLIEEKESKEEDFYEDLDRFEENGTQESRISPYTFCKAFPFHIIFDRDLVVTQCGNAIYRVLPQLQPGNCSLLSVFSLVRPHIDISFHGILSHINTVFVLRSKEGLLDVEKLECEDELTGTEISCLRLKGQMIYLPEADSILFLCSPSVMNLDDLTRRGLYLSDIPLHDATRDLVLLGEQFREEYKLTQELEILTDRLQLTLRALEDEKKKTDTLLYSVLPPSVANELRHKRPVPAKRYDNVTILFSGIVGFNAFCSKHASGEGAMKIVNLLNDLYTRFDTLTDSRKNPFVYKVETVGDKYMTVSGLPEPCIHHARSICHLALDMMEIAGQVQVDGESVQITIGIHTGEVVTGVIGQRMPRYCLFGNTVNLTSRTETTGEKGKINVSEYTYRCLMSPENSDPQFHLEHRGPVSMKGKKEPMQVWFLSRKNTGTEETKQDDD
Assay: sGC cellular activator assay (cGMP, HTRF)
Details: CHO cells stably expressing human sGC alpha 1/beta 1, preincubated with 40 microM ODQ; cGMP readout; assay run with and without 50% human serum, Table 2 does not say which
Reported pEC50 values follow for various compounds
pEC50 (log units): -log10 of the concentration in mol/L.

Example entries begin here.
[
  {
    "compound": "CCOc1c(C(=O)O)cnn1-c1cccc(-c2cccc(C)c2OCc2ccc3c(c2C)CN(C2CCOCC2)C3)n1",
    "measured-attribute": "pEC50",
    "result-number": 7.24
  },
  {
    "compound": "COc1c(C(=O)O)cnn1-c1cccc(-c2cccc(C)c2OCc2ccc3c(c2)CCN(CC(C)(C)O)C3)n1",
    "measured-attribute": "pEC50",
    "result-number": 7.01
  },
  {
    "compound": "COc1c(C(=O)O)cnn1-c1cccc(-c2cccc(C)c2OCc2ccc3c(c2C)CN(C2COC2)C3)n1",
    "measured-attribute": "pEC50",
    "result-number": 7.85
  },
  {
    "compound": "COc1c(C(=O)O)cnn1-c1cccc(-c2cccc(C)c2OCc2ccc3c(c2C)CCN(C[C@@H]2COCCO2)CC3)n1",
    "measured-attribute": "pEC50",
    "result-number": 8.35
  },
  {
    "compound": "COc1c(C(=O)O)cnn1-c1cccc(-c2cccc(C)c2OCc2ccc3c(c2)CCN(C2C4CCOC4C2(C)C)C3)n1 (centres unmarked)",
    "measured-attribute": "pEC50",
    "result-number": 7.64
  }
]

What value of pEC50 has been reported for the following compound? CCOc1c(C(=O)O)cnn1-c1cccc(-c2cccc(Cl)c2OCc2ccc3c(c2)CCN(C2COC2)C3)n1
7.14

Please report the recorded pEC50 for COc1c(C(=O)O)cnn1-c1cccc(-c2cccc(C)c2OCc2ccc3c(c2C)CCN([C@@H]2CCOC2)CC3)n1 .
8.04

What measured pEC50 goes with COc1c(C(=O)O)cnn1-c1cccc(-c2cccc(C(F)(F)F)c2OCc2ccc3c(c2)CCN(C2CCOCC2)C3)n1 ?
7.54

Hello, the source for this data is patent US8906904B2, in case you need it.
